Each recorded value in this set is attributed to PubChem BioAssay (NCATS).

# PROTOCOL TEXT: Quantitative High-Throughput drug screen in 47 multiple myeloma cell lines against the NCATS MIPE library collection: NCIH929_DSMZ cell viability assay (AID 1918978); note: nearly all actives have a fitted effect of over 35% in size
# EXPERIMENTAL CONDITIONS: NCI-H929 myeloma viability, CellTiter-Glo ATP, 48 h; series mostly up to 45.8 µM
Inconclusive results are not listed. Active and inactive are the calls of the source. Calls come from the whole dose curve; as a rule, active = well fitted cell-killing curve with a large enough effect; inconclusive = small, poorly fitted or top-dose-only effect; inactive = no such curve, though single readings can be large or run the other way.
# valid calls are active, inactive; nothing else

Solved cases below.
SUBSTANCE SMILES	GROUP
CS(=O)(=O)c1ccc(C2=C(c3ccccc3)C(=O)OC2)cc1	inactive
CNC(=O)[C@H](CC1=CN=C2C=CCC=C12)NC(=O)[C@@H](CC(=O)NO)CC(C)C	active
CN1CC(=O)NC1=NC(=O)Nc1cccc(Cl)c1	active

Check the results log: what was the call for Cc1ccc(NC(=O)Nc2cc(C(F)(F)F)ccc2F)cc1Nc1ccc2c(c1)NC(=O)C2=Cc1ccc[nH]1 ? active

Would you mind telling me which call this test gave Nc1[nH]nc2nnc(-c3c(-c4ccccc4)nn4ccccc34)cc12 ? active

Please state the recorded outcome for this compound: C[C@@H]1[C@H](O)[C@@H](C)C=CC=CC=CC=CC=CC=CC=C[C@H](O[C@@H]2O[C@H](C)[C@H](O)[C@H](N)[C@@H]2O)C[C@@H]2O[C@](O)(C[C@@H](O)C[C@@H](O)[C@H](O)CC[C@@H](O)C[C@@H](O)CC(=O)O[C@H]1C)C[C@H](O)[C@@H]2C(=O)O inactive

What did this assay record as the result for Cn1c(=O)c(Oc2ccc(F)cc2F)cc2cnc(NC3CCOCC3)nc21 ? inactive

Test call, this compound: NC(N)=Nc1nc(CSCCC(N)=NS(N)(=O)=O)cs1 active
